Assay Procedure: Phase 1 single ascending dose (SAD)/food-effect plasma pharmacokinetics
Assay type: in vivo, human
Condition Notes: human, plasma, oral, 90 mg, single 90 mg, fed (n = 6); read-out: Tmax (median)
Value Type: Tmax (h)
Your answer is read as h, so omit the unit and give the number.

Which Tmax is reported for this compound? "CC(C)(C)Oc1cc(CCC(C)(C)N2Cc3ccc(S(C)(=O)=O)cc3C2)ccc1O"
1.5

====

Assay Procedure: Phase 1 multiple ascending dose (MAD) plasma pharmacokinetics
Assay type: in vivo, human
Condition Notes: human, plasma, oral, 560 mg, 560 mg QD, Day 3, age at least 65 years (n = 7); read-out: Tmax (median)
Description: In Part B, healthy young subjects in each cohort received the same dose once daily for 14 days after overnight fasting. Cohort dosing started at 280 mg, followed by 560 mg and 840 mg in subsequent cohorts. In each cohort, eight subjects received drug and two received placebo. […] This was assessed by analysis of variance (ANOVA) of log-transformed Cmax, AUC0-24, AUC0-48, and/or AUC0-inf, using a model with factors for treatment (fed status or age [young vs. elderly] status) and subject within sequence. […]
Value Type: Tmax (h)
Your answer is read as h, so omit the unit and give the number.

Which Tmax is reported for this compound? "CC(C)(C)Oc1cc(CCC(C)(C)N2Cc3ccc(S(C)(=O)=O)cc3C2)ccc1O"
2
